Where do these numbers come from? They come from patent US10759790B2.

test system: H1650 lung cancer cells; assay: Cell viability assay (MTT, IC50 determination); format: cell-based; conditions: Homo sapiens, NCI-H1650; H1650 lung cancer cells, MTT, 48 hours after drug treatment; read-out: H1650 cell viability IC50
So I've got a bunch of compounds here, and I need their IC50 values.
Give bare numbers, in µM.

Sample records with IC50:
# Compound, Target or test system, IC50 [µM]
records = [
    ("O=S(=O)(N[C@@H]1COC[C@H](N2c3ccccc3Oc3ccc(F)cc32)[C@H]1O)c1ccc(OC(F)(F)F)cc1", "H1650 lung cancer cells", 15),
    ("CC(C)(C)OC(=O)N1C[C@@H](NS(=O)(=O)c2ccc(OC(F)(F)F)cc2)[C@H](O)[C@@H](n2c3ccc(Cl)cc3c3cc(Cl)ccc32)C1", "H1650 lung cancer cells", 5),
    ("CC(C)(C)OC(=O)N1C[C@@H](NS(=O)(=O)c2ccc(OC(F)(F)F)cc2)[C@H](O)[C@@H](n2c3ccccc3c3ccccc32)C1 [Example 52a]", "H1650 lung cancer cells", 5),
]

Each compound below has a recorded value; state its IC50.
1. O=S(=O)(N[C@@H]1COC[C@H](n2c3ccc(F)cc3c3cc(F)ccc32)[C@H]1O)c1ccc(OC(F)(F)F)cc1
2. O=S(=O)(N[C@@H]1COC[C@H](N2c3ccccc3Oc3cc(Cl)ccc32)[C@H]1O)c1ccc(OC(F)(F)F)cc1
3. CC(C)(C)OC(=O)N1C[C@@H](NS(=O)(=O)c2ccc(OC(F)(F)F)cc2)[C@H](O)[C@@H](n2c3ccc(F)cc3c3cc(F)ccc32)C1
4. O=S(=O)(N[C@@H]1COCC(N2c3ccccc3Oc3ccccc32)[C@H]1O)c1ccc(OC(F)(F)F)cc1 (relative stereo)

1: 10; 2: 5; 3: 5; 4: 15
